- measurementDescription: RP, Waters ACQUITY UPLC HSS T3, 100 × 2.1 mm, 1.8 µm, 30 °C, 0.3 mL/min, estimated dead time 0.73 min; A: water + 0.1% formic acid, pH 3; B: methanol + 0.1% formic acid, pH 3; gradient (min/%B) 0/0 6/0 56/100 60/100
- conditionContext: stereoisomer not certain
outcomeMeasure: LC retention time (min)

Some compounds with recorded LC retention time:
# compound, LC retention time, min
rows = [
    ("N[C@@H](COP(=O)(O)O)C(=O)O", 1.21),
    ("O=c1cc(-c2ccc(O)cc2)oc2cc(OC3OC(CO)C(O)C(O)C3O)cc(O)c12 (centres undefined) [apigenin-7-O-glucoside]", 28.9),
]

[a] NCCC[C@H](N)C(=O)O
[b] CCCCCC(=O)O
Hi, I'm comparing a with b and wondering which one has the bigger number for LC retention time. Any idea? Kindly give the label for the entry you pick.
b
